Please provide measured GI50 for the entries that follow.
System: SK-MEL-5
Test: NCI tumour cell line growth inhibition, 48 h
Activity calls are given as the source filed them. Rule as the data show it: active = GI50 up to about 1.1 µM and inactive = higher.

According to the records, this compound COc1cc2c(cc1O)C(C)Cc1cc3c(cc1N(C)CC2)OCO3 (configuration not stated) displays GI50 of 2.59 µM (inactive)

According to the records, this compound Cc1cc(N(CCC#N)S(=O)(=O)c2ccccc2)ccc1C=O displays GI50 of > 100 µM (inactive)

According to the records, this compound COc1ccc2nc(-c3ccccc3)cc(OCC(=O)O)c2c1 displays GI50 of > 100 µM (inactive)

According to the records, this compound C#CCN(Cc1ccc2[nH]c(N)nc(=O)c2c1)c1ccc(C(=O)NC(CCC(=O)O)C(=O)O)cc1 (configuration not stated) displays GI50 of > 100 µM (inactive)

According to the records, this compound COC(=O)[C@H](Cc1ccccc1)NC(=O)N1CCN(C(=O)N[C@@H](Cc2ccccc2)C(=O)OC)CCN(C(=O)N[C@@H](Cc2ccccc2)C(=O)OC)CC1 displays GI50 of > 100 µM (inactive)

According to the records, this compound C=C(C)C1CC2=C(O1)C(=O)c1ccccc1C2=O (stereo not drawn) [DEHYDROISO-ALPHA-LAPACHONE] displays GI50 of 14 µM (inactive)

According to the records, this compound COC(=O)CCc1c(Cc2ccc[nH]2)[nH]c(C(=O)OCc2ccccc2)c1C displays GI50 of 15.8 µM (inactive)

According to the records, this compound CN1CCCCC1CCN1CCCCC1 (configuration not stated) displays GI50 of > 100 µM (inactive)

According to the records, this compound C#CCOC(=O)C(N)C(C)O (configuration not stated) displays GI50 of > 100 µM (inactive)

According to the records, this compound CCCCOC(=O)CN1C(=O)c2ccccc2C1=O displays GI50 of > 100 µM (inactive)

According to the records, this compound CCOc1ccc(/N=C\c2cc(OC)c(OC)c(OC)c2)cc1 displays GI50 of > 100 µM (inactive)

According to the records, this compound CN1C(NN)=NS(=O)(=O)c2ccccc21 displays GI50 of > 100 µM (inactive)

According to the records, this compound COc1cc(C(C)c2cc3c(cc2OCCNC(=O)COc2cc4c(cc2C(C)c2cc(OC)c(OC)c(OC)c2)OCO4)OCO3)cc(OC)c1OC (configuration not stated) displays GI50 of > 100 µM (inactive)

According to the records, this compound NC1CCCCC1.O=C(O)C1(P(=O)(O)O)CC1 displays GI50 of > 100 µM (inactive)

According to the records, this compound COc1ccc(C2Cc3cc(OC)c(OC)c(OC)c3C2)cc1 (configuration not stated) displays GI50 of 16.3 µM (inactive)

According to the records, this compound COC(=O)C1C2OC(C)(C)OC2CN1S(=O)(=O)c1ccc(C)cc1 (configuration not stated) displays GI50 of > 100 µM (inactive)

According to the records, this compound NC(CCC(=O)O)(CCC(=O)O)CCC(=O)O displays GI50 of > 100 µM (inactive)

According to the records, this compound COC(=O)CC1C(C)(C)C(=O)C2CC3=C4CC(=O)OC(c5ccoc5)C4(C)CCC3C1(C)C2=O (configuration not stated) displays GI50 of > 100 µM (inactive)

According to the records, this compound COC(=O)c1nsc(OC)c1Cl displays GI50 of > 100 µM (inactive)

According to the records, this compound C/C(Sc1ccccc1)=C1/CCCN(Cc2ccccc2)C1 displays GI50 of 14.3 µM (inactive)

According to the records, this compound O=C(/C=C/c1ccc(Br)cc1)c1ccc(NCc2nc3ccccc3[nH]2)cc1 displays GI50 of 4.4 µM (inactive)

According to the records, this compound Cc1ncc([N+](=O)[O-])n1CCNC(=O)Cn1ccnc1[N+](=O)[O-] displays GI50 of > 100 µM (inactive)
